procedure.text: Inhibition of amyloid beta (1 to 40) after 94 hrs by thioflavin-T assay relative to control
Calls of active or inactive are those of the source. The calls are words filed in the database; no cut-off is given here.
metric: Activity

// known answers, use as guide
[
  {
    "structure.as.smiles": "CCOC(=O)[C@@](O)(c1c[nH]c2ccc(Br)cc12)C(F)(F)F",
    "Activity": "Active"
  },
  {
    "structure.as.smiles": "CCOC(=O)[C@@](O)(c1c[nH]c2ccc(I)cc12)C(F)(F)F",
    "Activity": "Active"
  },
  {
    "structure.as.smiles": "CCOC(=O)[C@](O)(c1c[nH]c2ccc(Cl)cc12)C(F)(F)F",
    "Activity": "Active"
  },
  {
    "structure.as.smiles": "CCOC(=O)[C@](O)(c1c[nH]c2ccc(I)cc12)C(F)(F)F",
    "Activity": "Active"
  },
  {
    "structure.as.smiles": "CCOC(=O)[C@@](O)(c1c[nH]c2ccc(Cl)cc12)C(F)(F)F",
    "Activity": "Active"
  }
]

Now examine the next entry.
### Prompt Any idea what Activity was measured for CCOC(=O)[C@](O)(c1c[nH]c2ccc(Br)cc12)C(F)(F)F ?
### Response Active

----------
procedure.text: Inhibition of amyloid beta (1 to 40) after 140 hrs by thioflavin-T assay
The source made the active and inactive calls. The calls are words filed in the database; no cut-off is given here.
metric: Activity

// known answers, use as guide
[
  {
    "structure.as.smiles": "CCOC(=O)[C@@](O)(c1c[nH]c2ccc(Cl)cc12)C(F)(F)F",
    "Activity": "Active"
  },
  {
    "structure.as.smiles": "CCOC(=O)[C@@](O)(c1c[nH]c2ccc(I)cc12)C(F)(F)F",
    "Activity": "Active"
  },
  {
    "structure.as.smiles": "CCOC(=O)[C@](O)(c1c[nH]c2ccc(Br)cc12)C(F)(F)F",
    "Activity": "Active"
  },
  {
    "structure.as.smiles": "CCOC(=O)[C@](O)(c1c[nH]c2ccc(Cl)cc12)C(F)(F)F",
    "Activity": "Active"
  },
  {
    "structure.as.smiles": "CCOC(=O)[C@@](O)(c1c[nH]c2ccc(Br)cc12)C(F)(F)F",
    "Activity": "Active"
  }
]

Now examine the next entry.
### Prompt Any idea what Activity was measured for CCOC(=O)[C@](O)(c1c[nH]c2ccc(I)cc12)C(F)(F)F ?
### Response Active
